Assay: in vivo
Conditions: mouse, in vivo, iv
experimental endpoint: LD50 at 72 h (mg/kg)

{"compound": "CC1=C(/C=C/C(C)=C/C=C/C(C)=C/C(=O)O)C(C)(C)CCC1 [Free RA, all-trans retinoic acid]", "value reported": 32}
